# SYSTEM_NAME: T1, histidine-tagged human uPAR (Sino#10925-H08H) (human, UniProt Q03405 23-303)
# T1 construct: also called uPAR-His
# TEST_METHOD_NOTES: BLI (Octet), antibody on anti-human Fc sensor, uPAR from 50 nM;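 note: antibodies captured at 10 µg/mL on anti-human Fc biosensors, with uPAR as analyte in a twofold dilution series from 50 nM downward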
Checkbox rule: kon lower than 400000 M⁻¹ s⁻¹ = met; kon not lower than 400000 M⁻¹ s⁻¹ = not met.

>>> label("M43-H1bm5/L4 (antibody, V domains shown, also called humanized M43) VH: QVQLVQSGAEVAKPGASVNLNCKASGYTFTSYGISWVRQRTGQGLEWIGEIYPRSGNTYYNEKFKGKVTLTTDKSTRTAYMELRSLTSEDTAVYYCAGKDYGSTYADYWGQGTTLTVSS VL: QIVLTQSPATLSASPGERVTMTCSASSSVSSRYLHWYQQKSGASPRLWIYGTSNLASGVPARFSGSGPGTSYTLTISSVEPEDAATYYCQQYHSDPLTFGQGTKLELKT")
"not met"
>>> label("M8-Chimeric (antibody, V domains shown) VH: QIQLVQSGPELKKPGETVKISCKASGNTFTDYGMNWVKQSPGKGLKWMGWINTNTGEPTYADDFKGRFAFSLETSASTAYLQINNLKNEDMATYFCAHYSFDYWGQGTTLTVSS VL: DIQMTQSPASLSVSVGQTVTITCRTSENIYSNLAWYQQKPGKSPQLLVYAATNLADGVPSRFSGSGSGTQYSLKINSLQSEDFGSYYCQHFWGTPWTFGGGTKLEIK")
"met"
>>> label("M8-H3/L2B2 (antibody, V domains shown, also called humanized M8) VH: QIQLVQSGSELKKPGASVKISCKASGTTFTDYGMNWVKQSPGKGLKWMGWINTNTGEPTYAEDFKGRFVFSLDTSVSTAYLQISSLKAEDTATYFCAHYSFDYWGQGTLLTVSS VL: DIQMTQSPSSLSASVGDTVTITCRTSENIYSNLAWYQQKPGKSPQLLVYAATNLADGVPSRFSGSGSGTQYTLKISSLQPEDFATYYCQHFWGTPWTFGGGTKVEIKT")
"met"
>>> label("M43-H4bm5/L4 (antibody, V domains shown, also called humanized M43) VH: QVQLQQSGAEVAKPGASVNLNCKASGYTFTSYGISWVRQRTGQGLEWIGEIYPRSGNTYYNEKFKGKATLTADKSTRTAYMELRSLTSEDTAVYFCAGKDYGSTYADYWGQGTTLTVSS VL: QIVLTQSPATLSASPGERVTMTCSASSSVSSRYLHWYQQKSGASPRLWIYGTSNLASGVPARFSGSGPGTSYTLTISSVEPEDAATYYCQQYHSDPLTFGQGTKLELKT")
"not met"
>>> label("M1-H3/L4 (antibody, V domains shown, also called humanized M1) VH: EVQLQQSGAEVKKPGATVKLSCTASGFNIKDEYINWVKQRPGQGLEWIGWIDPENGDTEYASKFQGRATITADTSTDTAYLELSSLRSEDTAVYYCTGGNYVGWFPYWGQGTLVTVSS VL: QIVLTQSPATLSASPGERVTMSCSASSSVSYMHWYQQKPGTSPRRWLYDTSKLASGVPARFSGSGSGTDYTLTISSLEPEDFATYYCQQWSSNPPYTFGQGTKLEIKT")
"not met"
